# protocol description: NCI Yeast Anticancer Drug Screen. Data for the mec2-1 strain (AID 157)
# test settings: S. cerevisiae mec2-1 strain, at 1.2 µM, active compounds read high
This is part of a sample that, as a whole, favours compounds with a hit. Of some 79,000 tested, about 15% had one in any assay.
Record form. Attribute: growth inhibition. Fill in for each entry.
One number for each entry, in %.

For every item below, please supply its growth inhibition.
1. N#CSCC1COc2ccccc2O1 (stereo unspecified)
2. CC(C)OC(=O)NNc1c(Cl)cc(Cl)cc1Cl
3. Cc1c(C(=O)/C=C/c2ccccc2[N+](=O)[O-])[n+](=O)c2ccccc2n1[O-]
4. O=[N+]([O-])c1cc(Cl)ccc1S(=O)(=O)c1ccc(Cl)cc1[N+](=O)[O-]
5. O/N=c1/ccn(O)c2ccccc12
6. CC(=O)Oc1ccc2c(c1)Cc1cc(N3C(=O)C=CC3=O)ccc1-2

Marked response:
1. -21
2. -3
3. 12
4. -12
5. 51
6. 15

###

# protocol description: NCI Yeast Anticancer Drug Screen. Data for the bub3 strain (AID 167)
# test settings: S. cerevisiae bub3 mutant strain, at 1.2 µM, active compounds read high
# Protocol: Growth inhibition of yeast strains with defined genetic alterations is measured as a screen for potential anti-cancer activity. Selected strains with alterations in DNA damage repair or cell cycle control were exposed to compounds and growth inhibition was measured relative to vehicle treated controls. The strain used in this assay is bub3
The panel holds about 79,000 compounds, 15% with a hit somewhere; the sample as a whole holds those more often.
measured attribute: growth inhibition (%)
Give bare numbers, in %.

Some solved cases for reference:
Exam item: Which growth inhibition is reported for this compound? CCCCCCCCCCCCOCCOCCOCC(N)=O
Marked response: -6

Exam item: What does the record list as growth inhibition for Nc1ccc(S(=O)(=O)Nc2nc3c(c(=O)[nH]2)CCCC3)cc1 ?
Marked response: 33

Below is a list of compounds. For each, state its recorded growth inhibition.
1. O=C(/C=C/c1ccsc1)c1cccs1
2. CCC[CH2][Sn]([CH2]CCC)([CH2]CCC)/[C](=C/[Si](C)(C)c1ccccc1)c1ccc2c(c1)OCO2
3. CC(=O)NC(c1nc2cc(C)c(C)cc2[nH]1)c1nc2cc(C)c(C)cc2[nH]1
4. CCc1c(Cl)c(C)c(Cl)c(O)c1Cl
5. CN(C)/C(=N/C(=S)Nc1ccccc1)SCc1ccccc1
6. COc1ccccc1NC(=O)c1ccc(Cl)cc1

Marked response:
1: 1; 2: -2; 3: -2; 4: 1; 5: -4; 6: -5

Dear reader, for each entry below, please note its growth inhibition.
1. Oc1ccc(C2(c3ccc(O)cc3)CCCC2)cc1
2. O=P(C(=S)Nc1c(Cl)cccc1Cl)(c1ccccc1)c1ccccc1

Marked response:
-24
0

Exam item: So what's the measured growth inhibition for this one? S=C1C(=Nc2ccccc2)N(c2ccccc2)/C(=N\c2ccccn2)N1c1ccccc1
Marked response: -7

###

# protocol description: NCI Yeast Anticancer Drug Screen. Data for the mec2-1 strain (AID 157)
# test settings: S. cerevisiae mec2-1 strain, at 33.0 µM
Compounds without any hit were thinned out: in the full panel of roughly 79,000, 15% have a hit. Active and inactive are the calls of the source. No stated cut-off is given here; in the data, active means growth inhibition above about 70%; inactive means the rest.
Hi! Could you answer with just one of these? active, inactive

Look over these answered cases.
Exam item: What outcome does the record of this test show for CCc1c(Cl)c(C)c(Cl)c(O)c1Cl ?
Marked response: active

Exam item: // return assay outcome for NC(CCCCCCCCCCCCC(N)C(=O)c1ccccc1)C(=O)c1ccccc1 (stereo unspecified)
Marked response: inactive

Exam item: Could you please tell me the result logged for N#Cc1nc(Nc2ccc(Cl)cc2)sc1N in this assay?
Marked response: inactive

Further cases:
Exam item: Give the logged outcome of this assay for the following compound: COc1cc(OC)c(CSCC(NC(=O)OCC2c3ccccc3-c3ccccc32)C(=O)O)c(OC)c1 (stereo unspecified)
Marked response: active

Exam item: Fill in: this test's call for CC1=CC(=C(c2ccc(N)c(C)c2)c2ccc(N)c(C)c2)C=CC1=N is ___
Marked response: inactive

Exam item: Recorded test outcome, item O=NC1c2cccc3cccc(c23)C1N=O (stereo unspecified)
Marked response: inactive
